system.name: T1, human CXCR4 (CXCR4 positive lipoparticles) (Homo sapiens, UniProt P61073)
T1 construct: purchased Integral Molecular LEV-101B
test: Biacore SPR kinetic binding to immobilised CXCR4 lipoparticles
condition.description: off-rate, CXCR4 expressed on lipoparticles (Table 3)
For each of the molecules below, state its dissociation rate constant (kd).
Just the number, please.

Enquiry: Entry AM4-774: affinity matured i-body, CDR1 SEQ ID NO: 83, CDR3 SEQ ID NO: 84 (protein) LQVDIVPSQGEISVGESKFFLCQVAGSKSVIRISWFSPNGEKLTPNQQRISVVWNDDSSSTLTIYNANIDDAGIYKCVVYRTGGYRHRYLVLGEATVNVKIFQ has what dissociation rate constant (kd)?
Return: 0.0105

Enquiry: Please give the measured dissociation rate constant (kd) for this molecule: AM3-920: affinity matured CXCR4 i-body, SEQ ID NO: 44 (protein, protein sequence encoding AM3-920) LQVDIVPSQGEISVGESKFFLCQVAGSGSGIRISWFSPNGEKLTPNQQRISVVWNDDSSSTLTIYNANIDDAGIYKCVVWRTGGYRHRYLVLGEATVNVKIFQ
Return: 0.00817

Enquiry: What measured dissociation rate constant (kd) goes with AM4-208: affinity matured i-body, CDR1 SEQ ID NO: 85, CDR3 SEQ ID NO: 86 (protein) LQVDIVPSQGEISVGESKFFLCQVAGSKSEIRISWFSPNGEKLTPNQQRISVVWNDDSSSTLTIYNANIDDAGIYKCVVYRTGGYRHRYLVLGEATVNVKIFQ ?
Return: 0.01283

Enquiry: Sample AM4-386: affinity matured i-body, CDR1 SEQ ID NO: 95, CDR3 SEQ ID NO: 96 (protein) LQVDIVPSQGEISVGESKFFLCQVAGITSEGHISWFSPNGEKLTPNQQRISVVWNDDSSSTLTIYNANIDDAGIYKCVVETTVFNEVMRLGNGAHVYEATVNVKIFQ — what was its dissociation rate constant (kd)?
Return: 0.015

Enquiry: # get_value(readout='dissociation rate constant (kd)', item= AM4-661: affinity matured CXCR4 i-body, SEQ ID NO: 60 (protein, protein sequence encoding AM4-661) LQVDIVPSQGEISVGESKFFLCQVAGSKSDFRISWFSPNGEKLTPNQQRISVVWNDDSSSTLTIYNANIDDAGIYKCVVYRTGGYRHRYLVLGEATVNVKIFQ )
Return: 0.00955

Enquiry: Form field: reported dissociation rate constant (kd) of AM3-182: affinity matured i-body, CDR1 SEQ ID NO: 99, CDR3 SEQ ID NO: 100 (protein) LQVDIVPSQGEISVGESKFFLCQVAGVGNHIRISWFSPNGEKLTPNQQRISVVWNDDSSSTLTIYNANIDDAGIYKCVVWRAGGYRHRALVLGEATVNVKIFQ
Return: 0.01562

Enquiry: Endpoint output: dissociation rate constant (kd) of AM4-203: affinity matured i-body, CDR1 SEQ ID NO: 101, CDR3 SEQ ID NO: 102 (protein) LQVDIVPSQGEISVGESKFFLCQVAGSYGDIRISWFSPNGEKLTPNQQRISVVWNDDSSSTLTIYNANIDDAGIYKCVVYRTGGWRHRYLVLGEATVNVKIFQ . Value?
Return: 0.01621
